Attribution: patent US20200079833A1

biological target: GLP-1 receptor (GLP-1R), primary cAMP assay (human, UniProt P43220 24-463); experiment: cell-based or functional assay
Starred links: 1 amine or outer side, 2 acyl side, 3 side chain; linkers in the order of their positions; H or OH if unused. Non-standard residues stand in square brackets, D forms with d. Groups on a side chain read outwards from the residue. Primed or numbered codes have the meaning given here. No end group written: not given here. *: point of attachment. γGlu = O=C(O)[C@H](CCC(=O)[*:2])N[*:1]; Palmitoyl = CCCCCCCCCCCCCCCC(=O)*; αMeF = C[C@](N)(Cc1ccccc1)C(=O)O; αMeK = C[C@](N)(CCCCN)C(=O)O; Lauroyl = CCCCCCCCCCCC(=O)*; αMeS = C[C@](N)(CO)C(=O)O; PEG2′ = not defined here; Aib = CC(C)(N)C(=O)O
readout-name: Primary assay EC50 (cAMP), n2
State the result as a value with its unit after it.

Example results:
binder	readout-name	recorded-value
H[Aib]EGS[αMeF]TSDV[αMeS]SK([PEG2′-PEG2′-γGlu-Palmitoyl])LEGEAA[αMeK]EFIK([PEG2′-PEG2′-γGlu-Palmitoyl])WVVEGG-NH2 [SEQ ID NO: 265]	Primary assay EC50 (cAMP), n2	28 pM
H[Aib]EGS[αMeF]TSDV[αMeS]SYK([PEG2′-PEG2′-γGlu-Palmitoyl])EGEAA[αMeK]EFIAK([PEG2′-PEG2′-γGlu-Palmitoyl])VVEGG-NH2 [SEQ ID NO: 272]	Primary assay EC50 (cAMP), n2	331 pM
H[Aib]EGS[αMeF]TSDVSK([PEG2′-PEG2′-γGlu-Palmitoyl])YLEGEAA[αMeK]EFIAWK([PEG2′-PEG2′-γGlu-Palmitoyl])VEGG-NH2 [SEQ ID NO: 255]	Primary assay EC50 (cAMP), n2	393 pM

IN: What value of measured Primary assay EC50 (cAMP), n2 is listed for H[Aib]EGS[αMeF]TSDVSK([PEG2′-PEG2′-γGlu-Palmitoyl])YLEGEAA[αMeK]EFIAK([PEG2′-PEG2′-γGlu-Palmitoyl])VVEGG-NH2 [SEQ ID NO: 254] ?
OUT: 186 pM

IN: // lookup Primary assay EC50 (cAMP), n2 for H[Aib]EGTFTSDVSK([PEG2′-PEG2′-γGlu-Lauroyl])FLEGEAAEEFIK([PEG2′-PEG2′-γGlu-Lauroyl])FVVEGG-NH2 [SEQ ID NO: 239]
OUT: 8.45 pM

IN: I'd like to know its Primary assay EC50 (cAMP), n2. The binder in question is H[Aib]EGS[αMeF]TSDVSK([PEG2′-PEG2′-γGlu-Lauroyl])YLEGEAAEEFIK([PEG2′-PEG2′-γGlu-Lauroyl])WVVEGG-NH2 [SEQ ID NO: 240]
OUT: 17.1 pM

IN: Tell me the measured Primary assay EC50 (cAMP), n2 of H[Aib]EGS[αMeF]TSDV[αMeS]SYK([PEG2′-PEG2′-γGlu-Lauroyl])EGEAA[αMeK]EFIAK([PEG2′-PEG2′-γGlu-Lauroyl])VVEGG-NH2 [SEQ ID NO: 269] , please.
OUT: 5.24 pM

IN: Could you share which Primary assay EC50 (cAMP), n2 value was measured for H[Aib]EGS[αMeF]TSDV[αMeS]SYK([PEG2′-PEG2′-γGlu-Lauroyl])EGEAA[αMeK]EFIAWK([PEG2′-PEG2′-γGlu-Lauroyl])VEGG-NH2 [SEQ ID NO: 270] ?
OUT: 36.5 pM
